Listed next: entries and their corresponding Emax.
biological target: ΔF508-CFTR (Homo sapiens, UniProt P13569, DEL508-508); construct: expressed in transfected cells; assay: Membrane potential optical assay (FRET/VIPR), identification of correction compounds; assay type: cell-based; conditions: relative efficacy
Sequence (P13569 with tags, fused parts or gaps DEL508-508): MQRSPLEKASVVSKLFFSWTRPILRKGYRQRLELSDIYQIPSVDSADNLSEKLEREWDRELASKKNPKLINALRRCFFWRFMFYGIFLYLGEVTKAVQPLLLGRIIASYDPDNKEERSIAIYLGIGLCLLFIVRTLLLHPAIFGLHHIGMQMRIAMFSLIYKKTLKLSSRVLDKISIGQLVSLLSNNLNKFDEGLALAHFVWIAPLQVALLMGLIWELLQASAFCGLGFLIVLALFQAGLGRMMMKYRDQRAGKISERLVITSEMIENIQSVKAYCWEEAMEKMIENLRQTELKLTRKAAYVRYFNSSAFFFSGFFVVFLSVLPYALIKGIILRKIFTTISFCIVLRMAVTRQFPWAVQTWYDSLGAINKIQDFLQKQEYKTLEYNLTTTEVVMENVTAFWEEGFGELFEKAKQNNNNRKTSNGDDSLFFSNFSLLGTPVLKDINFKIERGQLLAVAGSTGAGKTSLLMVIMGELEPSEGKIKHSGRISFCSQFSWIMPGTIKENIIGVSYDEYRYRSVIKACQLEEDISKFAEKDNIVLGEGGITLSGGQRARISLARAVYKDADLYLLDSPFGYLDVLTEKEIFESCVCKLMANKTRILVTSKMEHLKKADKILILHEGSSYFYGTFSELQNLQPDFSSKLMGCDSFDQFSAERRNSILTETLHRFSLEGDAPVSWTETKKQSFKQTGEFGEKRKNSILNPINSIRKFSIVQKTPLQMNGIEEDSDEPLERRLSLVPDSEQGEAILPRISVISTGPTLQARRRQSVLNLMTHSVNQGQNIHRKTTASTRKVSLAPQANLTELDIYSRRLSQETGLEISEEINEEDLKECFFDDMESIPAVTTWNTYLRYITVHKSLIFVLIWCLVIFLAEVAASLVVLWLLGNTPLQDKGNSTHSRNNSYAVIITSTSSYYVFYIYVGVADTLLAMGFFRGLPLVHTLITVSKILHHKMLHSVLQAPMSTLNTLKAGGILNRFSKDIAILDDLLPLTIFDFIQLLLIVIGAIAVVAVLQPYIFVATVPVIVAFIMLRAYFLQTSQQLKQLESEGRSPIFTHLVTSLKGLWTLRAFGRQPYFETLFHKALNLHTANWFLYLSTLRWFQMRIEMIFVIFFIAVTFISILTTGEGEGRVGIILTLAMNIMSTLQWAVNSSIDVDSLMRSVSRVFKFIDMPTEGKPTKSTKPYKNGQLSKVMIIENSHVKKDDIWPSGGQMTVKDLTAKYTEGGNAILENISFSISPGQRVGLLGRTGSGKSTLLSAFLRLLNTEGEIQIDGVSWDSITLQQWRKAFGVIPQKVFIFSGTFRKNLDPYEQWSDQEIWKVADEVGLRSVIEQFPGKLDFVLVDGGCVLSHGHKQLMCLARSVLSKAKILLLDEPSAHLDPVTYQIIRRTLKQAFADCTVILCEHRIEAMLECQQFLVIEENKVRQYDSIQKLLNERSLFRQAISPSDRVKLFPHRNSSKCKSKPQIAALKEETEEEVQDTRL

COc1ccc(S(=O)(=O)N2CCN(C(C)c3ncc4ccccc4n3)CC2)cc1 (stereo not shown) [compound 312]
25 to 100%
COc1ccc(S(=O)(=O)N2CCN(C(C)c3nc4ccccc4c(=O)n3CCNC(C)=O)CC2)cc1 (stereo not shown) [compound 288]
< 25%
CCCn1c(C(C)N2CCN(S(=O)(=O)c3ccc(Cl)c([N+](=O)[O-])c3)CC2)nc2ccccc2c1=O (stereo not shown) [compound 20]
< 25%

Turning to the following molecule.
Quickly give me recorded Emax for CC(c1nc2ccccc2c(=O)n1C)N1CCN(C(=O)c2ccc(Cl)cc2)CC1 (stereo not shown) [compound 53]
25 to 100%

Data origin, for the record: patent US8642609B2
